Listed here: items and their measured IC50.
- subject of test: CDK6/Cyclin D1 (Homo sapiens)
- Sequence (Q00534 whole entry): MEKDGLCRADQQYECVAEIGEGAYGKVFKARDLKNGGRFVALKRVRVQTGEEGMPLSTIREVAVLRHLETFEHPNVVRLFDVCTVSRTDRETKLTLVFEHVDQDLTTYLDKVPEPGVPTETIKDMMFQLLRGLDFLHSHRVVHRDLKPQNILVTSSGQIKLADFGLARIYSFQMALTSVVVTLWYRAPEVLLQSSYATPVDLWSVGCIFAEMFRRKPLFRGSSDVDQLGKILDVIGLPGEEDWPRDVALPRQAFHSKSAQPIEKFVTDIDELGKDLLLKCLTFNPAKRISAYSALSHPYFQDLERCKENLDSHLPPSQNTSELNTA
- Sequence (P24385 whole entry partner): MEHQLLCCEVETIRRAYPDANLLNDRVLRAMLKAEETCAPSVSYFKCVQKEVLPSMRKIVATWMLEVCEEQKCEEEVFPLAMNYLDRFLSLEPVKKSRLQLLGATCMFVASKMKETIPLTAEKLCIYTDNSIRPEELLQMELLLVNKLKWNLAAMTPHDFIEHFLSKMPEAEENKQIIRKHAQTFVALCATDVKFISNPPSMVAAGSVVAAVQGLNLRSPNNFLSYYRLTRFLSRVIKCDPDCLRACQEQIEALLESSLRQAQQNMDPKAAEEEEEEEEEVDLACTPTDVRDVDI
- measurement description: NanoBRET live-cell target engagement, NanoLuc-CDK6/Cyclin D1 in HEK-293
- Format: binding
- test settings: CDK6/D1; average (± SEM where n=3); read-out: IC50
Numbers only here, please. The scale is nM.

IC50 lookup needed for CC(C)c1c2cc(-c3ccnc(N[C@H]4CC[C@H](NC5CCOCC5)CC4)n3)ccc2nn1C , thanks.
110

IC50 lookup needed for CNC(=O)c1nn(C)c2c1C(C)(C)Cc1cnc(Nc3ccc(N4CCN(C)CC4)cc3)nc1-2 , thanks.
110

# evaluate next
IC50 lookup needed for CN1CCN(c2ccc(Nc3ncc4cc(C#N)c(=O)n(C5CCCC5)c4n3)cc2)CC1 , thanks.
4

###

Listed here: items and their measured IC50.
- subject of test: CDK1/Cyclin E1 (Homo sapiens, UniProt P06493)
- Sequence (P06493 whole entry): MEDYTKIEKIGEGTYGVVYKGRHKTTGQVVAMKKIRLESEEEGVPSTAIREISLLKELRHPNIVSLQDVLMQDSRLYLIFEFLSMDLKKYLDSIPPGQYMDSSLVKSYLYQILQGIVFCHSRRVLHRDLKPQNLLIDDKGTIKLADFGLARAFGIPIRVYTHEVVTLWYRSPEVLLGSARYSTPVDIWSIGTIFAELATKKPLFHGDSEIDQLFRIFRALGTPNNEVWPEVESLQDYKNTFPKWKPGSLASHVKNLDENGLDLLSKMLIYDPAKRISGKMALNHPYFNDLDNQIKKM
- Sequence (P24864 whole entry partner): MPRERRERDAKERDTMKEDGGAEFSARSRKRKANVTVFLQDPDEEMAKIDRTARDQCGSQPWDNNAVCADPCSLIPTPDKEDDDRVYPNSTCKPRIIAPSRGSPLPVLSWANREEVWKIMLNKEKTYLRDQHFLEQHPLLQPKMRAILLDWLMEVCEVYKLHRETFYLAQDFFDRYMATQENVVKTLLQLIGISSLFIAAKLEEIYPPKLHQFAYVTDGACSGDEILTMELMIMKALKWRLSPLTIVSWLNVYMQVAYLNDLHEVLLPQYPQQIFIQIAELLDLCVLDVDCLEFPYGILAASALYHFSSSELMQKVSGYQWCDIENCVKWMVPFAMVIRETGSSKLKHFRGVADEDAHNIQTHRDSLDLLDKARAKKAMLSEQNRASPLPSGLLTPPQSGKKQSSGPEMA
- measurement description: NanoBRET live-cell target engagement, CDK1-NanoLuc/Cyclin E1 in HEK-293
- Assay type: binding
- test settings: CDK1/E1; read-out: IC50 (nM) Replicate 2
Put your answer as a value accompanied by its unit after it.

IC50 lookup needed for CCCCOc1c(C(=O)c2c(F)cc(C)cc2F)c[nH]c2nncc1-2 [BMS-265246] , thanks.
39 nM

IC50 lookup needed for CC(C)c1cnn2c(NCc3ccccc3)cc(N[C@@H](CO)[C@H](O)CO)nc12 [BS-194] , thanks.
50 nM

Further cases:
IC50 lookup needed for CNC1CCN(C(=O)c2ccc(Nc3ncc(F)c(-c4cnc(C)n4C(C)C)n3)cc2)C1 (stereo not drawn) [AZD5597] , thanks.
9 nM

###

- subject of test: CDK8/Cyclin C (Homo sapiens, UniProt P49336)
- Sequence (P49336 whole entry): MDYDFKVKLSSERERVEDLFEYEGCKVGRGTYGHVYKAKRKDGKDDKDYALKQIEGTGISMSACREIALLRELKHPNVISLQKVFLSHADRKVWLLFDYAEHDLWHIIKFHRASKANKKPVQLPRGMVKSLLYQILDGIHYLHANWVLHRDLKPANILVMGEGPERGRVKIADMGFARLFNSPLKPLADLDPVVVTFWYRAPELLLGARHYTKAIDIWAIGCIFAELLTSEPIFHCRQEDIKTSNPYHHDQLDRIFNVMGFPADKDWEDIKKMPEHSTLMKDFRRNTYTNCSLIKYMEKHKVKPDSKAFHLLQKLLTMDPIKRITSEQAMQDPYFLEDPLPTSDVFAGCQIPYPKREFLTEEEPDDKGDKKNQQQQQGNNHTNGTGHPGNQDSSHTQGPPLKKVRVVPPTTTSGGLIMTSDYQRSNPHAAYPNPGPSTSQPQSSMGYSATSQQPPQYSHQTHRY
- Sequence (P24863 whole entry partner): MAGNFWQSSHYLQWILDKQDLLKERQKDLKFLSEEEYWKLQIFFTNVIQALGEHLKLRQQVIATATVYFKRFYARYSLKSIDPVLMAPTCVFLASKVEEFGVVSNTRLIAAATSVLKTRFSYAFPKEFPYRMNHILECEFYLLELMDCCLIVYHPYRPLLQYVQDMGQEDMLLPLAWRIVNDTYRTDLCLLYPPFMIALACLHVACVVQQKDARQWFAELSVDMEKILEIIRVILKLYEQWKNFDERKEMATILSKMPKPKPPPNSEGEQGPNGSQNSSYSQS
- measurement description: NanoBRET live-cell target engagement, NanoLuc-CDK8/Cyclin C in HEK-293
- Format: binding
- test settings: CDK8/C; experiment 2
result type: Inhibition at 10µM (%)
Numbers only here, please. The scale is %.

# example entries with known answers
Inhibition at 10µM (%) lookup needed for CCn1cnc2c(Nc3cccc(Cl)c3)nc(N[C@@H]3CCCC[C@@H]3N)nc21 [CGP74514A] , thanks.
0.659

Inhibition at 10µM (%) lookup needed for CC(C)c1c2cc(-c3ccnc(N[C@H]4CC[C@H](NC5CCOCC5)CC4)n3)ccc2nn1C , thanks.
79.0

Inhibition at 10µM (%) lookup needed for CC(C)c1cnn2c(NCc3ccccc3-n3cccn3)nc(OC3CCCNC3)nc12 (stereo not drawn) , thanks.
-7.1

Inhibition at 10µM (%) lookup needed for CS(=O)(=O)N1CCC(NC(=O)c2[nH]ncc2NC(=O)c2c(Cl)cccc2Cl)CC1 , thanks.
30.3

Inhibition at 10µM (%) lookup needed for CNc1nc(C)c(-c2nc(Nc3cccc(S(N)(=O)=O)c3)ncc2F)s1 , thanks.
97.4

# evaluate next
Inhibition at 10µM (%) lookup needed for CN1CCC(c2c(O)cc(O)c3c(=O)cc(-c4ccccc4Cl)oc23)C1CO (stereo not drawn) , thanks.
75.3

###

- subject of test: CDK4/Cyclin D1 (Homo sapiens, UniProt P11802)
- Sequence (P11802 whole entry, one chain of several): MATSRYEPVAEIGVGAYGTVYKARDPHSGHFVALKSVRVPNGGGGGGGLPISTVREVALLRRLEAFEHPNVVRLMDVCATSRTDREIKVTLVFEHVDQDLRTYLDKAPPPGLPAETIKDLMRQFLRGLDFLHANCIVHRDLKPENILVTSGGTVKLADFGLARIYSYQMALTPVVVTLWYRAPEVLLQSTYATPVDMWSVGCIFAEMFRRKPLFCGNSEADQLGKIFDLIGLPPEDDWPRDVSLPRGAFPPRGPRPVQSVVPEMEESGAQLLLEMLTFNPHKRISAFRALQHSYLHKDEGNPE
- measurement description: NanoBRET live-cell target engagement, NanoLuc-CDK4/Cyclin D1 in HEK-293
- Type: binding
- test settings: CDK4/D1; average
result type: Inhibition at 10µM (%)

# example entries with known answers
Inhibition at 10µM (%) lookup needed for CC(C)c1c2cc(-c3ccnc(N[C@H]4CC[C@H](NC5CCOCC5)CC4)n3)ccc2nn1C , thanks.
97.1%

Inhibition at 10µM (%) lookup needed for CN1CCC(c2c(O)cc(O)c3c(=O)cc(-c4ccccc4Cl)oc23)C1CO (stereo not drawn) , thanks.
80.8%

Inhibition at 10µM (%) lookup needed for CC(C)c1cnn2c(NCc3ccccc3-n3cccn3)nc(OC3CCCNC3)nc12 (stereo not drawn) , thanks.
58.1%

Inhibition at 10µM (%) lookup needed for CCn1cnc2c(Nc3cccc(Cl)c3)nc(N[C@@H]3CCCC[C@@H]3N)nc21 [CGP74514A] , thanks.
72.2%

Inhibition at 10µM (%) lookup needed for CS(=O)(=O)N1CCC(NC(=O)c2[nH]ncc2NC(=O)c2c(Cl)cccc2Cl)CC1 , thanks.
94.3%

# evaluate next
Inhibition at 10µM (%) lookup needed for CNc1nc(C)c(-c2nc(Nc3cccc(S(N)(=O)=O)c3)ncc2F)s1 , thanks.
93.8%
